These measurements were taken from ChEMBL document CHEMBL1201862.

# Test system: SW-620
# EXPERIMENTAL PROTOCOL: NCI tumour cell line growth inhibition, 48 h
The source made the active and inactive calls. No stated cut-off is given here; in the data, active = GI50 up to about 1.1 µM and inactive = higher.
# GI50 listing for each entry below

1) N#CC1CCCCCCCCCCC(=O)N(CCCl)C1=O (stereo unspecified) ... > 100 µM (inactive)
2) OCC(O)COCn1cc(Cn2ncc3c(NCc4ccccc4)ncnc32)nn1 (stereo unspecified) ... > 100 µM (inactive)
3) COc1cc2c(cc1OCCCCCN1C(=O)c3cccc4cccc(c34)C1=O)N=C[C@@H]1CCCN1C2=O ... 0.278 µM (active)
4) Cc1c(O)c(=O)ccn1CCc1c[nH]c2ccccc12 ... 7.23 µM (inactive)
5) CCOC1=C2N=C(C(CC)c3ccccc3F)N=C2C(=O)c2ccccc21 (stereo unspecified) ... > 100 µM (inactive)

Then there is this compound:
IN: Which GI50 value belongs to COC(=O)/C=C\C(C#N)(C#N)/N=C/c1cccs1 ?
OUT: 1.87 µM (inactive)
